Quick list: pKi per entry.
System: purified human plasma kallikrein (Homo sapiens (Human))
Sequence (P03952 whole entry, looked up): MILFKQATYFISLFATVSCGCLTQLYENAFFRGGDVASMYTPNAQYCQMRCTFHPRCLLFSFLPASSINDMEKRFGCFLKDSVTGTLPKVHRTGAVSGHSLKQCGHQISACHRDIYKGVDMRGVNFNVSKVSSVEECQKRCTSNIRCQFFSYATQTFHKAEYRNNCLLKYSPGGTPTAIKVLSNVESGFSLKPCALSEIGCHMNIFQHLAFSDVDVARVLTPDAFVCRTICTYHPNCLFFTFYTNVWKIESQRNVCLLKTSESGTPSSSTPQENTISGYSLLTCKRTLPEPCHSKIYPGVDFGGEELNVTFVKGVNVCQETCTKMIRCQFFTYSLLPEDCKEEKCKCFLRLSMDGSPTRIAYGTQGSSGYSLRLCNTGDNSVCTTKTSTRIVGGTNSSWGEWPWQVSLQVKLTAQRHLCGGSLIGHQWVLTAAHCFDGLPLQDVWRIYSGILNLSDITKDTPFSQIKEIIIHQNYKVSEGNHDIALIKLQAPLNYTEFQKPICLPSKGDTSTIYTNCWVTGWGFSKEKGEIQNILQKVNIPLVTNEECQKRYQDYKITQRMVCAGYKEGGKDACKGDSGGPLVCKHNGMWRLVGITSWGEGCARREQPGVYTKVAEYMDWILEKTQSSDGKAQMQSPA
Sequence (P03952 whole entry partner, looked up): as the sequence (P03952 whole entry, looked up) above
Protocol notes: biochemical
Type: biochemical
Particulars: TFA salt; read-out: Plasma Kallikrein Ki
pKi: −log10 of the molar value. Structures can show the parent of a compound that is named as a salt.

Compound	pKi
COC(=O)Nc1ccc2c(c1)NC(=O)[C@H](C)CCC[C@H](N1CCC(C3CCCC(C)C3)=CC1=O)c1cc-2ccn1 (single isomer, unassigned) [Example 218, TFA salt]	6.42
COC(=O)Nc1ccc2c(c1)NC(=O)[C@H](C)CCC[C@H](N1CCC(C3CCCC(C)C3)=CC1=O)c1cc-2ccn1 (single isomer, unassigned) [Example 153, TFA salt]	7.67
COC(=O)Nc1ccc2c(c1)NC(=O)[C@H](C)CCC[C@H](N1CCC(C3CCCC(C)C3)=CC1=O)c1cc-2ccn1 (single isomer, unassigned) [Example 225, TFA salt]	7.02
COC(=O)Nc1ccc2c(c1)NC(=O)[C@H](C)CCC[C@H](N1CCC(C3CCCC(C)C3)=CC1=O)c1cc-2ccn1 (single isomer, unassigned) [Example 226, TFA salt]	6.78

* * *

System: purified human Factor XIa (Homo sapiens (Human), UniProt P03951)
Sequence (P03951 whole entry, looked up): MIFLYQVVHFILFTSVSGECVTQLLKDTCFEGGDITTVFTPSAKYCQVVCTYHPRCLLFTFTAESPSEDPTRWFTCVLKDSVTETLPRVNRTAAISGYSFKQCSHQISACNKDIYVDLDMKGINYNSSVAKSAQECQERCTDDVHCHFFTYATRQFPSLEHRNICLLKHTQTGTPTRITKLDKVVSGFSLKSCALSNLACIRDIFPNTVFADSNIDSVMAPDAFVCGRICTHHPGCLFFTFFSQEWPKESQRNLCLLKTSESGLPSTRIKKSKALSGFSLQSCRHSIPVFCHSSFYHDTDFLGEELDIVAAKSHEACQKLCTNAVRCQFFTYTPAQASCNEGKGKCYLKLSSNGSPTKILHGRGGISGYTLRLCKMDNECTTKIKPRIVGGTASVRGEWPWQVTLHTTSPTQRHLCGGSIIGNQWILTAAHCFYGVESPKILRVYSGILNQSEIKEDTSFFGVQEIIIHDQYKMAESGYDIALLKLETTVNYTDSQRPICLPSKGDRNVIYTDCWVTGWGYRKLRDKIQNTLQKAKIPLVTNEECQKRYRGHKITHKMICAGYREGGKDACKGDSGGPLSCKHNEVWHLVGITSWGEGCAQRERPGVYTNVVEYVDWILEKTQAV
Sequence (P03951 whole entry partner, looked up): as the sequence (P03951 whole entry, looked up) above
Protocol notes: biochemical
Type: biochemical
Particulars: read-out: Factor XIa Ki
pKi: −log10 of the molar value. Where a name gives a salt, the structure may show the parent alone.
Please use rule met whenever pKi is not below 9, and rule not met whenever it is.

Compound	System	Assigned category
C[C@@H]1CCC[C@H](N2CCC(c3cc(Cl)ccc3-n3ccnn3)=CC2=O)c2cc(ccn2)-c2ccccc2NC1=O [Example 189]	purified human Factor XIa (Homo sapiens (Human), UniProt P03951)	rule not met
COC(=O)Nc1ccc2c(c1)NC(=O)[C@H](C)CCC[C@H](n1ncc(-c3c(F)ccc(Cl)c3F)cc1=O)c1cc-2ccn1 [Example 11, TFA salt]	purified human Factor XIa (Homo sapiens (Human), UniProt P03951)	rule not met
C[C@@H]1CCC[C@H](N2CCC(c3c(F)ccc(Cl)c3F)=CC2=O)c2cc(ccn2)-c2ccc(NC(=O)OCCOC(C)(C)C)cc2NC1=O [Example 53, TFA salt]	purified human Factor XIa (Homo sapiens (Human), UniProt P03951)	rule met
C[C@@H]1CCC[C@H](N2CCC(c3c(C#N)ccc(C#N)c3F)=CC2=O)c2cc(ccn2)-c2c(ccc(F)c2F)NC1=O [Example 209, TFA salt]	purified human Factor XIa (Homo sapiens (Human), UniProt P03951)	rule not met
COC(=O)Nc1ccc2c(c1)NC(=O)[C@H](C)C(F)CC[C@H](N1CCC(c3c(F)ccc(Cl)c3F)=CC1=O)c1cc-2ccn1 (stereo partly drawn) [Example 180]	purified human Factor XIa (Homo sapiens (Human), UniProt P03951)	rule met
COC(=O)Nc1ccc2c(c1)NC(=O)[C@H](C)C(=O)CC[C@H](N1CCC(c3c(F)ccc(Cl)c3F)=CC1=O)c1cc-2ccn1 [Example 136]	purified human Factor XIa (Homo sapiens (Human), UniProt P03951)	rule not met
COC(=O)c1cc2c(cc1N)NC(=O)[C@H](C)CCC[C@H](N1CCC(c3c(F)ccc(Cl)c3F)=CC1=O)c1cc-2ccn1 [Example 197, TFA salt]	purified human Factor XIa (Homo sapiens (Human), UniProt P03951)	rule not met
C[C@@H]1CCC[C@H](N2CCC(c3c(F)ccc(Cl)c3F)=CC2=O)c2cccc(c2)-c2cc(C(=O)O)ccc2NC1=O [Example 166]	purified human Factor XIa (Homo sapiens (Human), UniProt P03951)	rule not met
COC(=O)Nc1ccc2c(c1)NC(=O)[C@H](C)CCC[C@H](N1CCC(c3c(F)ccc(Cl)c3F)=C(C)C1=O)c1cc-2ccn1 [Example 64, TFA salt]	purified human Factor XIa (Homo sapiens (Human), UniProt P03951)	rule not met
C[C@@H]1CCC[C@H](N2CCC(c3c(F)ccc(Cl)c3F)=CC2=O)c2cc(ccn2)-c2ccc(NC3O[C@H](CO)[C@@H](O)[C@H](O)[C@H]3O)cc2NC1=O (stereo partly drawn) [Example 126]	purified human Factor XIa (Homo sapiens (Human), UniProt P03951)	rule not met
C#Cc1ccc(Cl)c(F)c1C1=CC(=O)N([C@H]2CCC[C@@H](C)C(=O)Nc3cc(NC(=O)OC)ccc3-c3ccnc2c3)CC1 [Example 181]	purified human Factor XIa (Homo sapiens (Human), UniProt P03951)	rule met
